# measuredTarget: BTK (Homo sapiens)
# Construct: purchased Eurofins DiscoverX KINOMEscan (scanTK)
# Sequence (Q06187 whole entry): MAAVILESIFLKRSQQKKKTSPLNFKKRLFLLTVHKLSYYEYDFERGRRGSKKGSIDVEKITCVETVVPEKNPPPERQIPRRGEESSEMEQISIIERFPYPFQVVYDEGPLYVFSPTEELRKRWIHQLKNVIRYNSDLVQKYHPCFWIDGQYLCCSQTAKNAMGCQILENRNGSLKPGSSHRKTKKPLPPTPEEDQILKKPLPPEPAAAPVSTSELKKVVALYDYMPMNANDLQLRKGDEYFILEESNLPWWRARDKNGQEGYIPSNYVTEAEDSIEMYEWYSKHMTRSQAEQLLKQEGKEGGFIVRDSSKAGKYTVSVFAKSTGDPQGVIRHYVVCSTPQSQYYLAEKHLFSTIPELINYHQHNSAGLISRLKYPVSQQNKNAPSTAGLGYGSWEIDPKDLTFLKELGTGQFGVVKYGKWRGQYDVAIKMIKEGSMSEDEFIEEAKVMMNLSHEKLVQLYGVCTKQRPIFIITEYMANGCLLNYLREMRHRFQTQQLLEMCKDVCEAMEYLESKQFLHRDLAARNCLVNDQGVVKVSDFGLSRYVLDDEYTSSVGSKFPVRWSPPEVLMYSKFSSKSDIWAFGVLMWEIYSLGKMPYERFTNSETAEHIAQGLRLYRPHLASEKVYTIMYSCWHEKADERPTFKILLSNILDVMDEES
# assayProcedure: KINOMEscan ScanTK
# Type: binding
# protocolConditions: BTK; read-out: %Control @1000nM
propertyLabel: remaining binding at 1 µM

// lookup remaining binding at 1 µM for `CCOC(=O)c1cnc(S(C)(=O)=O)nc1N1CCC[C@@H](n2nc(-c3ccc(Oc4ccccc4)cc3)c3c(N)ncnc32)C1`
18%

// lookup remaining binding at 1 µM for COC(=O)c1cnc(S(C)(=O)=O)nc1N1CCCC(n2nc(-c3ccc(Oc4ccccc4)cc3)c3c(N)ncnc32)C1 (stereo not shown)
0.75%

// lookup remaining binding at 1 µM for Cc1cnc(S(C)(=O)=O)nc1N1CCCC(n2nc(-c3ccc(Oc4ccccc4)cc3)c3c(N)ncnc32)C1 (stereo not shown)
0.1%

// lookup remaining binding at 1 µM for CNC(=O)c1cnc(S(C)(=O)=O)nc1N1CCCC(n2nc(-c3ccc(Oc4ccccc4)cc3)c3c(N)ncnc32)C1 (stereo not shown)
0%

---

Could you please report measured remaining binding at 1 µM for the items listed next?
# measuredTarget: FGFR3 (Homo sapiens, UniProt P22607)
# Construct: purchased Eurofins DiscoverX KINOMEscan (scanTK)
# Sequence (P22607 23-806): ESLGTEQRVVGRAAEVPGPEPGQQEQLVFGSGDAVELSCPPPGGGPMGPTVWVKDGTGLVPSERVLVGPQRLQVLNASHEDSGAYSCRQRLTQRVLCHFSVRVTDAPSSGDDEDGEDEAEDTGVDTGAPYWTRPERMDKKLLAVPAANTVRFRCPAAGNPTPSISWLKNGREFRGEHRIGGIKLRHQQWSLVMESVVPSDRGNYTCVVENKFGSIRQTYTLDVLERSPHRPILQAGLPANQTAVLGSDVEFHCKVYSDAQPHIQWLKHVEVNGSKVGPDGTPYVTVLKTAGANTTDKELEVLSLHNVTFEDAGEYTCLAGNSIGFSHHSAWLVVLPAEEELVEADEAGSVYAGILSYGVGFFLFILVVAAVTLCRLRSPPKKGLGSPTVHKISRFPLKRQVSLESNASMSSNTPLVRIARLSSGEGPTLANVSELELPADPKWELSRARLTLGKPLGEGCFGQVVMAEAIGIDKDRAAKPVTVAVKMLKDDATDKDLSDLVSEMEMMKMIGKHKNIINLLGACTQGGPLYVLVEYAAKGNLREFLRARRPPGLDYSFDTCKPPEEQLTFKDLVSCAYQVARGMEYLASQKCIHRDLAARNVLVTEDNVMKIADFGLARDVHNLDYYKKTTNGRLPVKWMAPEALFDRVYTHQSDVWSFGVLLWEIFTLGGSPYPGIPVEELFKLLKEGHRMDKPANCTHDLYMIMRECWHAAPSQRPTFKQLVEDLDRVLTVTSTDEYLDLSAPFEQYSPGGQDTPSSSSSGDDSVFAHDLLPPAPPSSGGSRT
# assayProcedure: KINOMEscan ScanTK
# Type: binding
# protocolConditions: read-out: %Control @1000nM
State the answer as a number, implicitly in %.

// lookup remaining binding at 1 µM for CNC(=O)c1cnc(S(C)(=O)=O)nc1N1CCCC(n2nc(-c3ccc(Oc4ccccc4)cc3)c3c(N)ncnc32)C1 (centres unmarked) [Compound 8d]
99

// lookup remaining binding at 1 µM for CCOC(=O)c1cnc(S(C)(=O)=O)nc1N1CCC[C@@H](n2nc(-c3ccc(Oc4ccccc4)cc3)c3c(N)ncnc32)C1 [Compound 8c]
96

// lookup remaining binding at 1 µM for C=CC(=O)N1CCC[C@@H](n2nc(-c3ccc(Oc4ccccc4)cc3)c3c(N)ncnc32)C1 [Compound 1g, Ibrutinib, reference compound]
48

// lookup remaining binding at 1 µM for COC(=O)c1cnc(S(C)(=O)=O)nc1N1CCCC(n2nc(-c3ccc(Oc4ccccc4)cc3)c3c(N)ncnc32)C1 (centres unmarked) [Compound 8b]
95

// lookup remaining binding at 1 µM for Cc1cnc(S(C)(=O)=O)nc1N1CCCC(n2nc(-c3ccc(Oc4ccccc4)cc3)c3c(N)ncnc32)C1 (centres unmarked) [Compound 8a]
92

---

# measuredTarget: EGFR(S752-I759del) (Homo sapiens, UniProt P00533, DEL752-759)
# Construct: purchased Eurofins DiscoverX KINOMEscan (scanTK)
# Sequence (P00533 with tags, fused parts or gaps DEL752-759 limits assumed): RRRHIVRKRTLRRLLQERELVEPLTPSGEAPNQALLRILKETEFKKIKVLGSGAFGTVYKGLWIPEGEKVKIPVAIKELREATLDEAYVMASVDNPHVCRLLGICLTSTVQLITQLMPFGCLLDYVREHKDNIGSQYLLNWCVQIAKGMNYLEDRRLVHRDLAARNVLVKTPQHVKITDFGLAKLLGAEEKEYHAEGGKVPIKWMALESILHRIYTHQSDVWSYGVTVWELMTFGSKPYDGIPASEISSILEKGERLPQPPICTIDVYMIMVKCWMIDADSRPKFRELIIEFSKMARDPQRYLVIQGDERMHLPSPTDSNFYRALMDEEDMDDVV
# assayProcedure: KINOMEscan ScanTK
# Type: binding
# protocolConditions: read-out: %Control @1000nM
Could you please report measured remaining binding at 1 µM for the items listed next?
State the answer as a number, implicitly in %.

// lookup remaining binding at 1 µM for `CCOC(=O)c1cnc(S(C)(=O)=O)nc1N1CCC[C@@H](n2nc(-c3ccc(Oc4ccccc4)cc3)c3c(N)ncnc32)C1`
100

// lookup remaining binding at 1 µM for Cc1cnc(S(C)(=O)=O)nc1N1CCCC(n2nc(-c3ccc(Oc4ccccc4)cc3)c3c(N)ncnc32)C1 (stereo not shown)
100

// lookup remaining binding at 1 µM for COC(=O)c1cnc(S(C)(=O)=O)nc1N1CCCC(n2nc(-c3ccc(Oc4ccccc4)cc3)c3c(N)ncnc32)C1 (stereo not shown)
82

// lookup remaining binding at 1 µM for CNC(=O)c1cnc(S(C)(=O)=O)nc1N1CCCC(n2nc(-c3ccc(Oc4ccccc4)cc3)c3c(N)ncnc32)C1 (stereo not shown)
69

---

# measuredTarget: EPHA1 (Homo sapiens)
# Construct: purchased Eurofins DiscoverX KINOMEscan (scanTK)
# Sequence (P21709 26-976): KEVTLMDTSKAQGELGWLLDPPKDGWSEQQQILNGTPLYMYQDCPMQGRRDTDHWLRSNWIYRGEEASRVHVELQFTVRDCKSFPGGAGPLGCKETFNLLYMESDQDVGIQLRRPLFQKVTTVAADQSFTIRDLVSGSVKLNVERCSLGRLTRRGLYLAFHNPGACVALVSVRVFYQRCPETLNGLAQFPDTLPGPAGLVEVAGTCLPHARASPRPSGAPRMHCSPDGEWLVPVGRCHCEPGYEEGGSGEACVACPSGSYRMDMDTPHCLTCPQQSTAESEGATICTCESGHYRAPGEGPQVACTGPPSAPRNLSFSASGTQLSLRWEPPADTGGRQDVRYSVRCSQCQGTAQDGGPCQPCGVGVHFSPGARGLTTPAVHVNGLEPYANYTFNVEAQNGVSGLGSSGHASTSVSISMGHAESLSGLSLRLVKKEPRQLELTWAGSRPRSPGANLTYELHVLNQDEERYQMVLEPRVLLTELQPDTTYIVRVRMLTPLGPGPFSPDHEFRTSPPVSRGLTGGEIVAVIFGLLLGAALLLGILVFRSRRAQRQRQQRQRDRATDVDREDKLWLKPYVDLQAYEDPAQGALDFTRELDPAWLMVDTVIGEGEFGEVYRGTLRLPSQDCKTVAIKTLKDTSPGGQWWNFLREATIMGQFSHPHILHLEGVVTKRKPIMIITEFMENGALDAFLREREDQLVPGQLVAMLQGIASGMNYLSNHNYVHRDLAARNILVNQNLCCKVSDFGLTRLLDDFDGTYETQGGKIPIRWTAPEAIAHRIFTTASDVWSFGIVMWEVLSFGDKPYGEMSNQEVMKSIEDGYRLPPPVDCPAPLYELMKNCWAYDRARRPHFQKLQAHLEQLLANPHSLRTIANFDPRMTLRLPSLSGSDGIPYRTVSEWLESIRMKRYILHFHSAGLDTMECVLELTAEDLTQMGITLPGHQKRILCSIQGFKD
# assayProcedure: KINOMEscan ScanTK
# Type: binding
# protocolConditions: @1000nM, read-out: %Control
propertyLabel: remaining binding at 1 µM (%)
State the answer as a number, implicitly in %.

Find remaining binding at 1 µM (EPHA1 (Homo sapiens)) for the entry CCOC(=O)c1cnc(S(C)(=O)=O)nc1N1CCC[C@@H](n2nc(-c3ccc(Oc4ccccc4)cc3)c3c(N)ncnc32)C1 [Compound 8c]
92

Find remaining binding at 1 µM (EPHA1 (Homo sapiens)) for the entry Cc1cnc(S(C)(=O)=O)nc1N1CCCC(n2nc(-c3ccc(Oc4ccccc4)cc3)c3c(N)ncnc32)C1 (centres unmarked) [Compound 8a]
81

Find remaining binding at 1 µM (EPHA1 (Homo sapiens)) for the entry CNC(=O)c1cnc(S(C)(=O)=O)nc1N1CCCC(n2nc(-c3ccc(Oc4ccccc4)cc3)c3c(N)ncnc32)C1 (centres unmarked) [Compound 8d]
66

Find remaining binding at 1 µM (EPHA1 (Homo sapiens)) for the entry COC(=O)c1cnc(S(C)(=O)=O)nc1N1CCCC(n2nc(-c3ccc(Oc4ccccc4)cc3)c3c(N)ncnc32)C1 (centres unmarked) [Compound 8b]
56

Find remaining binding at 1 µM (EPHA1 (Homo sapiens)) for the entry C=CC(=O)N1CCC[C@@H](n2nc(-c3ccc(Oc4ccccc4)cc3)c3c(N)ncnc32)C1 [Compound 1g, Ibrutinib, reference compound]
72

---

# measuredTarget: ITK (Homo sapiens)
# Construct: purchased Eurofins DiscoverX KINOMEscan (scanTK)
# Sequence (Q08881 whole entry): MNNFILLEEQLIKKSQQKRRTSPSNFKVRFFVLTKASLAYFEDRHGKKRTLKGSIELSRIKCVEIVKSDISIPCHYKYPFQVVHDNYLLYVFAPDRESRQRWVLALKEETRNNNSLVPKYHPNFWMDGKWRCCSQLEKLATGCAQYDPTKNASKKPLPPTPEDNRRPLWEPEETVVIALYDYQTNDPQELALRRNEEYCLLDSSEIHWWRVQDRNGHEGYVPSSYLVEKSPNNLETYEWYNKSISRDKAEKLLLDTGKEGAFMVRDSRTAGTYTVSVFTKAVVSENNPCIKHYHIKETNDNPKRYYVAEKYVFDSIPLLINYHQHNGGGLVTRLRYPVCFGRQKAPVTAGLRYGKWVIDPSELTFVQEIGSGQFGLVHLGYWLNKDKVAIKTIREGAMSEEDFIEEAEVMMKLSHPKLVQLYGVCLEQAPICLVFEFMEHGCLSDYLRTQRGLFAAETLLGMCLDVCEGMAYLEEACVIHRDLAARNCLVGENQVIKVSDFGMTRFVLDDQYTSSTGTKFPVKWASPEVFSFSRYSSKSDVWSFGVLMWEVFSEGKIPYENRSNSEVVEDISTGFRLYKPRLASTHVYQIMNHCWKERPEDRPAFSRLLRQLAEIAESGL
# assayProcedure: KINOMEscan ScanTK
# Assay type: binding
# protocolConditions: ScanTK, 1 μM
Could you please report measured inhibition at 1 µM for the items listed next?
State the answer as a number, implicitly in %.

// lookup inhibition at 1 µM for COC(=O)c1cnc(S(C)(=O)=O)nc1N1CCCC(n2nc(-c3ccc(Oc4ccccc4)cc3)c3c(N)ncnc32)C1 (centres unmarked)
29

// lookup inhibition at 1 µM for C=CC(=O)N1CCC[C@@H](n2nc(-c3ccc(Oc4ccccc4)cc3)c3c(N)ncnc32)C1 [Compound 1g, Ibrutinib, reference compound]
85

// lookup inhibition at 1 µM for Cc1cnc(S(C)(=O)=O)nc1N1CCCC(n2nc(-c3ccc(Oc4ccccc4)cc3)c3c(N)ncnc32)C1 (centres unmarked)
16

// lookup inhibition at 1 µM for `CCOC(=O)c1cnc(S(C)(=O)=O)nc1N1CCC[C@@H](n2nc(-c3ccc(Oc4ccccc4)cc3)c3c(N)ncnc32)C1`
12

// lookup inhibition at 1 µM for CNC(=O)c1cnc(S(C)(=O)=O)nc1N1CCCC(n2nc(-c3ccc(Oc4ccccc4)cc3)c3c(N)ncnc32)C1 (centres unmarked)
19

---

Could you please report measured difference in %Control versus compound Ib at 1 µM for the items listed next?
# measuredTarget: INSR (Homo sapiens, UniProt P06213)
# Construct: purchased Eurofins DiscoverX KINOMEscan (scanTK)
# Sequence (P06213 28-1382): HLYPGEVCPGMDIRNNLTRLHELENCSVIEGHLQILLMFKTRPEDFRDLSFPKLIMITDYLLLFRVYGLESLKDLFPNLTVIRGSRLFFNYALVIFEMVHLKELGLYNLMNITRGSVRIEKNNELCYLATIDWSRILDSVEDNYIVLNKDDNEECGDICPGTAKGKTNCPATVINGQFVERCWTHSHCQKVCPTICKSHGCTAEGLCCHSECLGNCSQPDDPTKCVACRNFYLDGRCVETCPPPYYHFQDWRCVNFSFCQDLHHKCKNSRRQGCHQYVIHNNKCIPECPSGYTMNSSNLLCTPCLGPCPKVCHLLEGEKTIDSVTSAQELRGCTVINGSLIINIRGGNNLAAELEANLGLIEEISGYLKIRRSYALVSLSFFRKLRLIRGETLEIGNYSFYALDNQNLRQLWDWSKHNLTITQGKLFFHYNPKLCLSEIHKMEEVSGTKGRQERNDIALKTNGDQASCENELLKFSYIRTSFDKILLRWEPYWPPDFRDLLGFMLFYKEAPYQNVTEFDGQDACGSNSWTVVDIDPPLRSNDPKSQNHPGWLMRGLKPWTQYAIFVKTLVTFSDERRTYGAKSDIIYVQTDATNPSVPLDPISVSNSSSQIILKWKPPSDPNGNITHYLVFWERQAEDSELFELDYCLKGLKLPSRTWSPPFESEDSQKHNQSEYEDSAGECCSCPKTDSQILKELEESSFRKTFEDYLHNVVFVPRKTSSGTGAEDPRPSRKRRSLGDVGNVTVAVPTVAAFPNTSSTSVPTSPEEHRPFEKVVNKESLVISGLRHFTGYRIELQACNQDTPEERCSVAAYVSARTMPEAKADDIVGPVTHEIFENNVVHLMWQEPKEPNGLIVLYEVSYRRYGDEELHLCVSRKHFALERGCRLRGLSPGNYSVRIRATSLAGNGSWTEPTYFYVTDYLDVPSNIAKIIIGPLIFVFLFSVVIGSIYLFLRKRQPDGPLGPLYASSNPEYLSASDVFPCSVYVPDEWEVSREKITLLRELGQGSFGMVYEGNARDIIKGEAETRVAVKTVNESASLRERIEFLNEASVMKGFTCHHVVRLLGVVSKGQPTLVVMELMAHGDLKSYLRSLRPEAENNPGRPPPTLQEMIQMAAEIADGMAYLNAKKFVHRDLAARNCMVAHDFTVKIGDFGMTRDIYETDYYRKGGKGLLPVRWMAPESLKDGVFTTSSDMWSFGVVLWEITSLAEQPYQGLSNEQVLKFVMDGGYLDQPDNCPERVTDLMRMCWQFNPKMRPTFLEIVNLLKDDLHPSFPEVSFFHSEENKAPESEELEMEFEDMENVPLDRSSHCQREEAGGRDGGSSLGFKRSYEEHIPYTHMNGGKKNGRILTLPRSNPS
# assayProcedure: KINOMEscan ScanTK
# Type: binding
# protocolConditions: @1000nM
Include the unit after the number when you answer.

// lookup difference in %Control versus compound Ib at 1 µM for CNC(=O)c1cnc(S(C)(=O)=O)nc1N1CCCC(n2nc(-c3ccc(Oc4ccccc4)cc3)c3c(N)ncnc32)C1 (stereo not shown)
0%

// lookup difference in %Control versus compound Ib at 1 µM for COC(=O)c1cnc(S(C)(=O)=O)nc1N1CCCC(n2nc(-c3ccc(Oc4ccccc4)cc3)c3c(N)ncnc32)C1 (stereo not shown)
-5%

// lookup difference in %Control versus compound Ib at 1 µM for Cc1cnc(S(C)(=O)=O)nc1N1CCCC(n2nc(-c3ccc(Oc4ccccc4)cc3)c3c(N)ncnc32)C1 (stereo not shown)
-5%

// lookup difference in %Control versus compound Ib at 1 µM for `CCOC(=O)c1cnc(S(C)(=O)=O)nc1N1CCC[C@@H](n2nc(-c3ccc(Oc4ccccc4)cc3)c3c(N)ncnc32)C1`
0%

---

# measuredTarget: JAK1(JH1domain-catalytic) (Homo sapiens, UniProt P23458)
# Construct: JAK1(JH1domain-catalytic); purchased Eurofins DiscoverX KINOMEscan (scanTK)
# Sequence (P23458 875-1154 limits assumed): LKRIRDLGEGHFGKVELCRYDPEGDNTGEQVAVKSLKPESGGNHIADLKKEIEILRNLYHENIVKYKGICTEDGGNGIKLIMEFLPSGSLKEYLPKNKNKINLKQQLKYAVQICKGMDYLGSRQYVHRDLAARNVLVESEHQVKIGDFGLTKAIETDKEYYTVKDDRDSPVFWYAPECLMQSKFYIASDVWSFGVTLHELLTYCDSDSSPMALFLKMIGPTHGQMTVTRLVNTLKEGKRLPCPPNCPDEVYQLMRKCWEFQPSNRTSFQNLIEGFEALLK
# assayProcedure: KINOMEscan ScanTK
# Assay type: binding
# protocolConditions: @1000nM, read-out: %Control
propertyLabel: remaining binding at 1 µM (%)
State the answer as a number, implicitly in %.

// lookup remaining binding at 1 µM for `CCOC(=O)c1cnc(S(C)(=O)=O)nc1N1CCC[C@@H](n2nc(-c3ccc(Oc4ccccc4)cc3)c3c(N)ncnc32)C1`
100

// lookup remaining binding at 1 µM for COC(=O)c1cnc(S(C)(=O)=O)nc1N1CCCC(n2nc(-c3ccc(Oc4ccccc4)cc3)c3c(N)ncnc32)C1 (centres unmarked)
97

// lookup remaining binding at 1 µM for CNC(=O)c1cnc(S(C)(=O)=O)nc1N1CCCC(n2nc(-c3ccc(Oc4ccccc4)cc3)c3c(N)ncnc32)C1 (centres unmarked)
100

// lookup remaining binding at 1 µM for Cc1cnc(S(C)(=O)=O)nc1N1CCCC(n2nc(-c3ccc(Oc4ccccc4)cc3)c3c(N)ncnc32)C1 (centres unmarked)
94

// lookup remaining binding at 1 µM for C=CC(=O)N1CCC[C@@H](n2nc(-c3ccc(Oc4ccccc4)cc3)c3c(N)ncnc32)C1 [Compound 1g, Ibrutinib, reference compound]
94

---

# measuredTarget: FLT3(N841I) (Homo sapiens, UniProt P36888, N841I)
# Construct: purchased Eurofins DiscoverX KINOMEscan (scanTK)
# assayProcedure: KINOMEscan ScanTK
# Format: binding
# protocolConditions: @1000nM
propertyLabel: difference in %Control versus compound Ib at 1 µM
Include the unit after the number when you answer.

// lookup difference in %Control versus compound Ib at 1 µM for COC(=O)c1cnc(S(C)(=O)=O)nc1N1CCCC(n2nc(-c3ccc(Oc4ccccc4)cc3)c3c(N)ncnc32)C1 (stereo not shown)
43%

// lookup difference in %Control versus compound Ib at 1 µM for CNC(=O)c1cnc(S(C)(=O)=O)nc1N1CCCC(n2nc(-c3ccc(Oc4ccccc4)cc3)c3c(N)ncnc32)C1 (stereo not shown)
37%

// lookup difference in %Control versus compound Ib at 1 µM for `CCOC(=O)c1cnc(S(C)(=O)=O)nc1N1CCC[C@@H](n2nc(-c3ccc(Oc4ccccc4)cc3)c3c(N)ncnc32)C1`
54%

// lookup difference in %Control versus compound Ib at 1 µM for Cc1cnc(S(C)(=O)=O)nc1N1CCCC(n2nc(-c3ccc(Oc4ccccc4)cc3)c3c(N)ncnc32)C1 (stereo not shown)
40%

Reference source: paper PMC11345841
